# assayName: Kinetic solubility
# Type: physicochemical
# measurementContext: kinetic from dmso stock
property: solubility kinetic
Output should be the measured figure followed by the unit it is expressed in.

compound: CC(=O)N[C@@H]1[C@H](Oc2cccc(C#N)c2-c2cccc(NS(C)(=O)=O)c2)OC(CO)[C@H](O)[C@@H]1O (stereo partly drawn) [Compound 3079]
solubility kinetic: 196 µM

compound: CC(=O)N[C@@H]1[C@H](Oc2cccc(C(F)(F)F)c2-c2cccc(NS(C)(=O)=O)c2)OC(CO)[C@H](O)[C@@H]1O (stereo partly drawn) [Compound 3090]
solubility kinetic: 197 µM

Now consider the entry below.
Which solubility kinetic value belongs to Cc1cccc(O[C@@H]2OC(CO)[C@H](O)[C@H](O)[C@@H]2NC(=O)C(F)(F)F)c1-c1cccc(NS(C)(=O)=O)c1 (stereo partly drawn) [Compound 3088] ?
164 µM

====

# targetOfAssay: FmlHLD (Escherichia coli)
# Construct: 6xHis (C); made in house; host or cells: E. coli C600, periplasm, pTRC99a
# Sequence (P77588 25-182): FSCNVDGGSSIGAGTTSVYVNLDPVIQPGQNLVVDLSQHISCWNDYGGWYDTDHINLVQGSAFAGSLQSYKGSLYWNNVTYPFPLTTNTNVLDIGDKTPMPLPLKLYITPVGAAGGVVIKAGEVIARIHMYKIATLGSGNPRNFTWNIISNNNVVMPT
# assayName: biochemical
# Assay type: binding, E. coli
# measurementContext: read-out: % Inhibition at [μM] [10], compound at 10 μM; inhibition of FmlHLD binding to ds-BSM
Please go through the items and note down their inhibition at 10 µM.
Numbers only, in %.

Example compounds with recorded inhibition at 10 µM:
compound: CC1=CC(=O)Cc2c1cc(F)c(O[C@@H]1O[C@H](CO)[C@H](O)[C@H](O)[C@H]1O)c2F [DiF-MUG, reference compound]
targetOfAssay: FmlHLD (Escherichia coli)
inhibition at 10 µM / %: 0.85

compound: OC[C@H]1O[C@@H](Oc2ccccc2)[C@H](O)[C@@H](O)[C@H]1O [Phenyl Gal, reference compound]
targetOfAssay: FmlHLD (Escherichia coli)
inhibition at 10 µM / %: 15.5

compound: O=[N+]([O-])c1ccc(S[C@@H]2O[C@H](CO)[C@H](O)[C@H](O)[C@H]2O)cc1 [PNPTG, reference compound]
targetOfAssay: FmlHLD (Escherichia coli)
inhibition at 10 µM / %: 17

compound: OC[C@H]1O[C@@H](Oc2ccc3ccccc3c2)[C@H](O)[C@@H](O)[C@H]1O [2-napthyl Gal, reference compound]
targetOfAssay: FmlHLD (Escherichia coli)
inhibition at 10 µM / %: 14.6

compound: O=C(O)c1cccc(-c2ccccc2O[C@@H]2O[C@H](CO)[C@H](O)[C@H](O)[C@H]2O)c1 [Compound 200b]
targetOfAssay: FmlHLD (Escherichia coli)
inhibition at 10 µM / %: 75.1

Take each entry in turn and give its inhibition at 10 µM.
1. OC[C@H]1O[C@@H](Oc2ccccc2-c2ccccc2)[C@H](O)[C@@H](O)[C@H]1O
2. OC[C@H]1O[C@@H](SCCc2ccccc2)[C@H](O)[C@@H](O)[C@H]1O [2-phenylethyl-thio-galactoside, reference compound]

31
2.31

====

# targetOfAssay: FmlHLD (Escherichia coli)
# Construct: 6xHis (C); made in house; host or cells: E. coli C600, periplasm, pTRC99a
# assayName: biochemical
# Type: binding, E. coli
# measurementContext: Kd; galactoside in solution, immobilized ser-TF
pKd: −log10 of the molar value.
property: pKd

// pKd lookup, key: CC(=O)N[C@H]1[C@H](Oc2ccccc2-c2cccc(C(=O)O)c2)O[C@H](CO)[C@H](O)[C@@H]1O
~7.05
